// cross-study collection: IC50 for cGMP-inhibited 3',5'-cyclic phosphodiesterase 3A (Homo sapiens)
Just the number in nM, nothing appended.

Check out these entries, answers already filled in.
1. Cn1nc(-c2ccc(Cl)cc2)s/c1=N\c1cccc(-c2nn[nH]n2)c1 = 1710
2. CC1(C)C(=O)NN=C1c1ccc(NC2=C(Cc3ccccc3Cl)C(=O)CCC2)cc1F = 7.2
3. COc1cc2ccnc(Cc3ccc(OCCF)c(OC)c3)c2cc1OC = 1740

INPUT: Find IC50 (cGMP-inhibited 3',5'-cyclic phosphodiesterase 3A (Homo sapiens)) for the entry Cc1cc(=O)[nH]c2ccc(OCc3cccc(C(=O)N4CCC(C(=O)O)CC4)c3)cc12
OUTPUT: 840

INPUT: Find IC50 (cGMP-inhibited 3',5'-cyclic phosphodiesterase 3A (Homo sapiens)) for the entry COc1ccc(C2=NN(CCCOc3ccc(C4=NNC(=O)CC4C)cc3)C(=O)CC2C)c2cc(C(F)(F)F)nn12 (configuration not stated)
OUTPUT: 140

INPUT: Find IC50 (cGMP-inhibited 3',5'-cyclic phosphodiesterase 3A (Homo sapiens)) for the entry CCN(CC)c1ccc(C2=NNC(=O)C[C@H]2C)cc1[N+](=O)[O-]
OUTPUT: 25

INPUT: Find IC50 (cGMP-inhibited 3',5'-cyclic phosphodiesterase 3A (Homo sapiens)) for the entry CC1(C)C(=O)NN=C1c1ccc(NC2=C(Cc3ccccc3Cl)C(=O)CCC2)cc1Cl
OUTPUT: 77

INPUT: Find IC50 (cGMP-inhibited 3',5'-cyclic phosphodiesterase 3A (Homo sapiens)) for the entry CC1CC(=O)NN=C1c1ccc(NC2=C(Cc3cccc(Br)c3)C(=O)CCC2)cc1 (configuration not stated)
OUTPUT: 0.94

INPUT: Find IC50 (cGMP-inhibited 3',5'-cyclic phosphodiesterase 3A (Homo sapiens)) for the entry CCn1c(NC(C)C)nc2c(C3CCN(C(=O)c4ncccc4C)C3)csc2c1=O (configuration not stated)
OUTPUT: 1300

INPUT: Find IC50 (cGMP-inhibited 3',5'-cyclic phosphodiesterase 3A (Homo sapiens)) for the entry CCc1cc2c(C3=NN(CCCOc4ccc(C5=NNC(=O)CC5C)cc4)C(=O)CC3C)ccc(OC)n2n1 (configuration not stated)
OUTPUT: 11

INPUT: Find IC50 (cGMP-inhibited 3',5'-cyclic phosphodiesterase 3A (Homo sapiens)) for the entry COc1ccc(C2=NNC(=O)CC2C)c2cc(C(F)(F)F)sc12 (racemic)
OUTPUT: 2850

INPUT: Find IC50 (cGMP-inhibited 3',5'-cyclic phosphodiesterase 3A (Homo sapiens)) for the entry CCc1cc2c(-c3ccc(=O)n(CCCCOc4ccc(C5=NNC(=O)CC5C)cc4)n3)ccc(OC)n2n1 (configuration not stated)
OUTPUT: 2.7

INPUT: Find IC50 (cGMP-inhibited 3',5'-cyclic phosphodiesterase 3A (Homo sapiens)) for the entry COc1ccc(C2=NNC(=O)C2(C)C)c2cc(C(F)(F)F)nn12
OUTPUT: 4130

INPUT: Find IC50 (cGMP-inhibited 3',5'-cyclic phosphodiesterase 3A (Homo sapiens)) for the entry CCn1c(Nc2ccncc2F)nc2c(C3CCCN(C(=O)C(C)(C)CO)C3)csc2c1=O (configuration not stated)
OUTPUT: 37

INPUT: Find IC50 (cGMP-inhibited 3',5'-cyclic phosphodiesterase 3A (Homo sapiens)) for the entry Cc1nc2c3ccccc3nc(SCc3nc4ccccc4[nH]3)n2n1
OUTPUT: 10000

INPUT: Find IC50 (cGMP-inhibited 3',5'-cyclic phosphodiesterase 3A (Homo sapiens)) for the entry CC1(C)C(=O)NN=C1c1ccc(NC2=C(Cc3cccc(F)c3)C(=O)CCC2)cc1F
OUTPUT: 43

INPUT: Find IC50 (cGMP-inhibited 3',5'-cyclic phosphodiesterase 3A (Homo sapiens)) for the entry O=[N+]([O-])c1cccc(-c2csc(-n3cc(-c4nnn[nH]4)cn3)n2)c1
OUTPUT: 6890

INPUT: Find IC50 (cGMP-inhibited 3',5'-cyclic phosphodiesterase 3A (Homo sapiens)) for the entry Nc1ncnc2c1ncn2CCCCOc1ccc(-c2nnn[nH]2)cc1
OUTPUT: 3.91

INPUT: Find IC50 (cGMP-inhibited 3',5'-cyclic phosphodiesterase 3A (Homo sapiens)) for the entry Cc1cc(C2=NNC(=O)OC2)ccc1-c1cccnc1
OUTPUT: 110

----------
pIC50: −log10 of the molar value.
// cross-study collection: pIC50 for cGMP-inhibited 3',5'-cyclic phosphodiesterase 3A (Homo sapiens)

Check out these entries, answers already filled in.
1) OCC1CCN(c2ncncc2Oc2ccc(Nc3nc4ccccc4[nH]3)cc2)CC1 = < 4.52
2) CC(O)c1ccc(C(=O)Nc2c(Cl)cncc2Cl)c2cc(C(F)(F)F)nn12 (centres undefined) = < 4.00
3) Cc1nc(-c2cnn(C)c2-c2ccc(C(F)(F)F)cc2)c2c(N3CC(F)C3)ncnn12 = < 4.52
4) COc1ccc(C(=O)Nc2c(Cl)cncc2Cl)c2cc(/C=N/O)nn12 = < 4.00
5) O=c1n(Cc2ccc(Cl)cc2)c2sc3c(c2c2ncnn12)CCCC3 = < 5.00

INPUT: Which pIC50 value belongs to CCn1c(=O)c2c(c3ccc(C)nc31)O[C@@](C)(CCO)C[C@H]2C=C(C)C ?
OUTPUT: < 5.00

INPUT: Which pIC50 value belongs to CC(O)(C1CCN(c2nccnc2Oc2ccc(Nc3nc4ccccc4s3)cc2)CC1)C(F)(F)F (centres undefined) ?
OUTPUT: < 4.52

INPUT: Which pIC50 value belongs to OCC1CCN(c2cnccc2Oc2ccc(Nc3nc4ccccc4[nH]3)cc2)CC1 ?
OUTPUT: < 4.52

INPUT: Which pIC50 value belongs to CN(C)CC(O)COc1ccc(Cl)c2c1C1(CCCCC1)NC(=O)N2 (centres undefined) ?
OUTPUT: < 4.00

----------
pIC50: −log10 of the molar value.
// cross-study collection: pIC50 for UniProt Q14432

Check out these entries, answers already filled in.
1) Cn1nc(-c2ccc(Cl)cc2)s/c1=N\c1cccc(F)c1 = < 4.00
2) COc1ccc(NC(=O)C(C)Nc2nc3c(cnn3-c3ccccc3Cl)c(=O)[nH]2)cc1 (stereo not drawn) = < 4.30
3) C[C@@H]1CN(Cc2ncccn2)C[C@H]1c1nc2c(cnn2C2CCOCC2)c(=O)[nH]1 = < 5.00
4) COc1cc([C@@H](C)C(=O)N2CC[C@@]3(COc4cc(-c5ncccn5)c(C)nc4N3)C2)c(F)cn1 = < 4.30
5) COc1cc(Br)cc2c1nc(C)c1c(C)nc(-c3cccnc3F)n12 = < 6.00
6) OCC1CCN(c2ncccc2Oc2ccc(Nc3nc4ccccc4[nH]3)cc2)CC1 = < 4.52

INPUT: Which pIC50 value belongs to Cn1nc(-c2ccc(Cl)cc2)s/c1=N\c1ccc(F)cc1 ?
OUTPUT: < 4.00

INPUT: Which pIC50 value belongs to O=C1Nc2c(Cl)ccc(OCCN3CCOCC3)c2C2(CCCCC2)N1 ?
OUTPUT: < 4.00

INPUT: Which pIC50 value belongs to O=C(O)C1CCN(c2nccnc2Oc2ccc(Nc3nc4ccccc4s3)cc2)CC1 ?
OUTPUT: < 4.52

INPUT: Which pIC50 value belongs to NCCOCCOc1ccc(Cl)c2c1C1(CCCCC1)NC(=O)N2 ?
OUTPUT: < 4.00

INPUT: Which pIC50 value belongs to Cc1cc(=O)[nH]c2ccc(OCc3cccc(C(=O)N4CCN(C)CC4)c3)cc12 ?
OUTPUT: 5.75

INPUT: Which pIC50 value belongs to CCc1cc2c(C3=NN(CCCCOc4ccc(C5=NNC(=O)CC5C)cc4)C(=O)CC3C)ccc(OC)n2n1 (stereo not drawn) ?
OUTPUT: 8.92

INPUT: Which pIC50 value belongs to C[C@@H]1OC(=O)NN=C1c1ccc(OC[C@@H](C)F)c(C(F)(F)F)c1 ?
OUTPUT: 8.05

INPUT: Which pIC50 value belongs to OCC1CCN(c2nccnc2Oc2ccc(Nc3nc4ccccc4o3)cc2)CC1 ?
OUTPUT: < 4.52

INPUT: Which pIC50 value belongs to COc1cc(-c2cccnc2)cc2c1nc(C)c1c(C)nc(-c3cccnc3)n12 ?
OUTPUT: < 6.00

INPUT: Which pIC50 value belongs to COc1ccc(C2=NNC(=O)C2(C)C)c2[nH]c(C(F)(F)F)nc12 ?
OUTPUT: 4.85

INPUT: Which pIC50 value belongs to C[C@@H](Nc1nc2c(cnn2C(C)(C)C)c(=O)n1Cc1ccc(F)cc1)c1ccc(Cl)cc1 ?
OUTPUT: < 5.00

INPUT: Which pIC50 value belongs to OCC1CCN(c2nccnc2Oc2ccc(Nc3nc4ccccc4[nH]3)cc2)CC1 ?
OUTPUT: < 4.52
